- target or test system: Elastase (Sus scrofa)
- Construct: purchased Sigma-Aldrich
- protocol text: Elastase inhibition, fluorogenic substrate assay (MeOSuc-Ala-Ala-Pro-Val-AMC)
- Format: biochemical, Sus domesticus
- condition description: Elastase; inhibitor concentration 12.3457 nM; 40 min pre-incubation
Provide the recorded Mean (RFU/s) for the entries that follow.
Give bare numbers, in RFU/s.

Worked cases, Mean (RFU/s) given:
[[record]]
compound = "CC=C1NC(=O)[C@@H](NC(=O)[C@@H](NC(=O)[C@@H]2CCCN2C(=O)CCC)[C@@H](C)OC(=O)C2CCCN2C(=O)CCC)[C@@H](C)OC(=O)[C@H](C(C)C)NC(=O)[C@H](Cc2ccc(O)cc2)N(C)C(=O)[C@H](Cc2ccccc2)N2C(=O)[C@H](CC[C@H]2O)NC1=O (stereo partly drawn) [Rivulariapeptolide 1155, rivulariapeptolide 1155]"
target_or_test_system = "Elastase (Sus scrofa)"
display_unit = "RFU/s"
recorded_result = 0.1703

[[record]]
compound = "CC=C1NC(=O)[C@@H](NC(=O)[C@@H](NC(=O)[C@@H]2CCCN2C(=O)CCC)[C@@H](C)O)[C@@H](C)OC(=O)[C@H](C(C)C)NC(=O)[C@H](Cc2ccc(O)cc2)N(C)C(=O)[C@H](Cc2ccccc2)N2C(=O)[C@H](CC[C@H]2O)NC1=O [Rivulariapeptolide 988, rivulariapeptolide 988]"
target_or_test_system = "Elastase (Sus scrofa)"
display_unit = "RFU/s"
recorded_result = 0.463


-- ask // lookup Mean (RFU/s) for C/C=C1\NC(=O)[C@@H](NC(=O)[C@@H](NC(=O)[C@H](C)NC(=O)CCC)[C@@H](C)O)[C@@H](C)OC(=O)[C@H](C(C)C)NC(=O)[C@H](Cc2ccc(O)cc2)N(C)C(=O)[C@H](Cc2ccccc2)N2C(=O)[C@H](CC[C@H]2O)NC1=O [Molassamide, molassamide]
-- reply 0.6947

###

- target or test system: Elastase (Sus scrofa, UniProt P00772)
- Construct: purchased Sigma-Aldrich
- Sequence (P00772 27-266): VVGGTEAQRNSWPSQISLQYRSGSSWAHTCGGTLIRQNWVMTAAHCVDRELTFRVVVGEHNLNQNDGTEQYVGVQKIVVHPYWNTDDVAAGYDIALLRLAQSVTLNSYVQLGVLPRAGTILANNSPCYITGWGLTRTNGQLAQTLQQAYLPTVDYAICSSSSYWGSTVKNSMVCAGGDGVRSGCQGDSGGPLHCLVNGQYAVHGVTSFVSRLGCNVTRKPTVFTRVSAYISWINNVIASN
- protocol text: Elastase inhibition, fluorogenic substrate assay (MeOSuc-Ala-Ala-Pro-Val-AMC)
- Type: biochemical, Sus domesticus
- condition description: Elastase; inhibitor concentration 4.11523 nM; 40 min pre-incubation
Please respond with reported Mean (RFU/s) for every item in the list.

These recorded examples may help you get a feel for the data.
[[record]]
molecule = "CC=C1NC(=O)[C@@H](NC(=O)[C@@H](NC(=O)[C@@H]2CCCN2C(=O)CCC)[C@@H](C)O)[C@@H](C)OC(=O)[C@H](C(C)C)NC(=O)[C@H](Cc2ccc(O)cc2)N(C)C(=O)[C@H](Cc2ccccc2)N2C(=O)[C@H](CC[C@H]2O)NC1=O [Rivulariapeptolide 988, rivulariapeptolide 988]"
recorded_result = "0.661 RFU/s"

[[record]]
molecule = "C/C=C1\\NC(=O)[C@@H](NC(=O)[C@@H](NC(=O)[C@H](C)NC(=O)CCC)[C@@H](C)O)[C@@H](C)OC(=O)[C@H](C(C)C)NC(=O)[C@H](Cc2ccc(O)c(Br)c2)N(C)C(=O)[C@H](Cc2ccccc2)N2C(=O)[C@H](CC[C@H]2O)NC1=O [Molassamide B, molassamide B]"
recorded_result = "0.677 RFU/s"

[[record]]
molecule = "C/C=C1\\NC(=O)[C@@H](NC(=O)[C@@H](NC(=O)[C@H](C)NC(=O)CCC)[C@@H](C)O)[C@@H](C)OC(=O)[C@H](C(C)C)NC(=O)[C@H](Cc2ccc(O)cc2)N(C)C(=O)[C@H](Cc2ccccc2)N2C(=O)[C@H](CC[C@H]2O)NC1=O [Molassamide, molassamide]"
recorded_result = "0.7663 RFU/s"

[[record]]
molecule = "CCCC(=O)N1CCCC1C(=O)NC(C(=O)NC1C(=O)NC(CC(C)C)C(=O)NC2CCC(O)N(C2=O)C(Cc2ccccc2)C(=O)N(C)C(Cc2ccc(O)cc2)C(=O)NC(C(C)C)C(=O)OC1C)C(C)OC(=O)C1CCCN1C(=O)CCC (stereo not drawn) [Rivulariapeptolide 1185, rivulariapeptolide 1185]"
recorded_result = "0.7693 RFU/s"

[[record]]
molecule = "CC=C1NC(=O)[C@@H](NC(=O)[C@@H](NC(=O)[C@@H]2CCCN2C(=O)CCC)[C@@H](C)OC(=O)C2CCCN2C(=O)CCC)[C@@H](C)OC(=O)[C@H](C(C)C)NC(=O)[C@H](Cc2ccc(O)cc2)N(C)C(=O)[C@H](CC(C)C)N2C(=O)[C@H](CC[C@H]2O)NC1=O (stereo partly drawn) [Rivulariapeptolide 1121, rivulariapeptolide 1121]"
recorded_result = "0.7343 RFU/s"


Next item in the queue.
-- ask Lab request: please report Mean (RFU/s) under test system Elastase (Sus scrofa, UniProt P00772) for CC=C1NC(=O)[C@@H](NC(=O)[C@@H](NC(=O)[C@@H]2CCCN2C(=O)CCC)[C@@H](C)OC(=O)C2CCCN2C(=O)CCC)[C@@H](C)OC(=O)[C@H](C(C)C)NC(=O)[C@H](Cc2ccc(O)cc2)N(C)C(=O)[C@H](Cc2ccccc2)N2C(=O)[C@H](CC[C@H]2O)NC1=O (stereo partly drawn) [Rivulariapeptolide 1155, rivulariapeptolide 1155]
-- reply 0.5503 RFU/s

src = paper PMC9358669
